- Experimental Details: Dynamic light scattering (DLS) of Fluc mRNA/peptoid formulations: particle size and polydispersity
- Format: physicochemical
- Condition Parameters: Fluc mRNA/peptoid complex, 5:1 mass ratio peptoid:cargo
Kindly return MET if reported Size (volume average particle size/diameter) is no lower than 400 nm; return NOT MET if it is lower.

Has CCCCCCCCCCCCN(CC(N)=O)C(=O)CN(CCCCCCCCCCCC)C(=O)CN(CCc1ccc(OC)cc1)C(=O)CN(CCc1ccc(OC)cc1)C(=O)CN(CCN)C(=O)CN(CCc1ccc(OC)cc1)C(=O)CN(CCc1ccc(OC)cc1)C(=O)CN(CCN)C(=O)CN(CCc1ccc(OC)cc1)C(=O)CN(CCc1ccc(OC)cc1)C(=O)CNCCN a recorded Size (volume average particle size/diameter) greater than or equal to 400 nm?
NOT MET

Given the entry CCCCCCCCCCN(CC(=O)N(CCN)CC(=O)N(CCc1ccccc1)CC(=O)N(CCc1ccccc1)CC(=O)N(CCCCCCCCCC)CC(=O)N(CCN)CC(=O)N(CCc1ccccc1)CC(=O)N(CCc1ccccc1)CC(N)=O)C(=O)CN(CCc1ccccc1)C(=O)CN(CCc1ccccc1)C(=O)CNCCN , answer whether its Size (volume average particle size/diameter) meets or surpasses 400 nm.
MET

Quick check, Size (volume average particle size/diameter) >= 400 nm? CCCCCCCCCCN(CC(N)=O)C(=O)CN(CCCCCCCCCC)C(=O)CN(CCc1ccccc1)C(=O)CN(CCc1ccccc1)C(=O)CN(CCNC)C(=O)CN(CCc1ccccc1)C(=O)CN(CCc1ccccc1)C(=O)CN(CCNC)C(=O)CN(CCc1ccccc1)C(=O)CN(CCc1ccccc1)C(=O)CNCCNC
MET

Would you say CCCCCCCCCCN(CC(N)=O)C(=O)CN(CCCCCCCCCC)C(=O)CN(CCCCCCCCCC)C(=O)CN(CCCCCCCCCC)C(=O)CN(CCc1ccccc1)C(=O)CN(CCc1ccccc1)C(=O)CN(CC1CCNCC1)C(=O)CN(CCc1ccccc1)C(=O)CN(CCc1ccccc1)C(=O)CN(CC1CCNCC1)C(=O)CN(CCc1ccccc1)C(=O)CN(CCc1ccccc1)C(=O)CN(CC1CCNCC1)C(=O)CN(CCc1ccccc1)C(=O)CN(CCc1ccccc1)C(=O)CNCC1CCNCC1 shows Size (volume average particle size/diameter) at minimum 400 nm?
NOT MET

Please indicate if the recorded Size (volume average particle size/diameter) for CCCCCCCCCCN(CC(N)=O)C(=O)CN(CCCCCCCCCC)C(=O)CN(CCc1ccccc1)C(=O)CN(CCc1ccccc1)C(=O)CN(CC1CCCN1)C(=O)CN(CCc1ccccc1)C(=O)CN(CCc1ccccc1)C(=O)CN(CC1CCCN1)C(=O)CN(CCc1ccccc1)C(=O)CN(CCc1ccccc1)C(=O)CNCC1CCCN1 (stereo not shown) meets or exceeds 400 nm.
NOT MET

Would you say CCCCCCCCCCN(CC(N)=O)C(=O)CN(CCCCCCCCCC)C(=O)CN(CCc1ccccc1)C(=O)CN(CCN)C(=O)CN(CCc1ccccc1)C(=O)CN(CCN)C(=O)CN(CCc1ccccc1)C(=O)CNCCN shows Size (volume average particle size/diameter) at minimum 400 nm?
MET

Please check the record CCCCCCCCCCN(CC(N)=O)C(=O)CN(CCCCCCCCCC)C(=O)CN(CCCCCCCCCC)C(=O)CN(CCCCCCCCCC)C(=O)CN(CCc1ccccc1)C(=O)CN(CCc1ccccc1)C(=O)CN(CC1CCNCC1)C(=O)CN(CCc1ccccc1)C(=O)CN(CCc1ccccc1)C(=O)CN(CC1CCNCC1)C(=O)CN(CCc1ccccc1)C(=O)CN(CCc1ccccc1)C(=O)CNCC1CCNCC1 and state if its Size (volume average particle size/diameter) is at or above 400 nm.
NOT MET

Check if Size (volume average particle size/diameter) >= 400 nm (inclusive). Item: CCCCCCCCCCCCCCCCCCN(CC(N)=O)C(=O)CN(CCCCCCCCCCCCCCCCCC)C(=O)CN(CCc1ccccc1)C(=O)CN(CCc1ccccc1)C(=O)CN(CCN)C(=O)CN(CCc1ccccc1)C(=O)CN(CCc1ccccc1)C(=O)CN(CCN)C(=O)CN(CCc1ccccc1)C(=O)CN(CCc1ccccc1)C(=O)CNCCN
NOT MET

Say whether CCCCCCCCCCCCN(CC(N)=O)C(=O)CN(CCCCCCCCCCCC)C(=O)CN(CCc1ccccc1)C(=O)CN(CCc1ccccc1)C(=O)CN(CCN)C(=O)CN(CCc1ccccc1)C(=O)CN(CCc1ccccc1)C(=O)CN(CCN)C(=O)CN(CCc1ccccc1)C(=O)CN(CCc1ccccc1)C(=O)CNCCN shows Size (volume average particle size/diameter) of 400 nm or more.
NOT MET

Item CCCCCCCCCCN(CC(N)=O)C(=O)CN(CCCCCCCCCC)C(=O)CN(CCCCCCCCCC)C(=O)CN(CCCCCCCCCC)C(=O)CN(CCc1ccccc1)C(=O)CN(CCc1ccccc1)C(=O)CN(CCNC)C(=O)CN(CCc1ccccc1)C(=O)CN(CCc1ccccc1)C(=O)CN(CCNC)C(=O)CN(CCc1ccccc1)C(=O)CN(CCc1ccccc1)C(=O)CNCCNC with Size (volume average particle size/diameter) of 400 nm or above?
MET

Where these numbers come from: patent US11701434B2
